# tgt: OB-R (leptin receptor) expressed by rabbit endometrial cells (rEEC and rESC) (rabbit)
# test-summary: competition with 125I-human leptin for OB-R in rabbit endometrial cell lysates (rEEC and rESC), PEG precipitation
observation-type: pKi
The scale used: pKi is minus the common logarithm of the concentration in molar units.

**Q:** Reported pKi for SRNVIQISNDLENLRDLLHVLAFSKS [LPA-2 (leptin peptide antagonist 2; residues 70-95 of helix III of the human leptin molecule)] : what is it?
**A:** 10.22
